Test system: subcutaneous transplanted tumor of Ba/F3 KIF5B-RET cells
EXPERIMENT_SUMMARY: Tumor suppression on Ba/F3 KIF5B-RET transplanted tumor model
Assay type: in vivo, BALB/c nude mice
CONDITION_LABEL: 10 mg/kg oral twice a day, Day 0
ATTRIBUTE_MEASURED: Tumor volume (Mean ± SD) Day 0 (mm^3)
Give the value, in units of mm^3, as a plain number.

MOLECULE: C#C[C@@](C)(O)COc1cc(-c2ccc(N3CC4CC(C3)N4Cc3ccc(OC)nc3)nc2)c2c(C#N)cnn2c1
SYSTEM_NAME: subcutaneous transplanted tumor of Ba/F3 KIF5B-RET cells
ATTRIBUTE_MEASURED: Tumor volume (Mean ± SD) Day 0
MEASURED: 126.13
//
MOLECULE: C#CC(C)(O)COc1cc(-c2ccc(N3CC4CC(C3)N4Cc3ccc(OC)nc3)nc2)c2c(C#N)cnn2c1 (stereo not drawn)
SYSTEM_NAME: subcutaneous transplanted tumor of Ba/F3 KIF5B-RET cells
ATTRIBUTE_MEASURED: Tumor volume (Mean ± SD) Day 0
MEASURED: 100.24
//
MOLECULE: C#C[C@](C)(O)COc1cc(-c2ccc(N3CC4CC(C3)N4Cc3ccc(OC)nc3)nc2)c2c(C#N)cnn2c1
SYSTEM_NAME: subcutaneous transplanted tumor of Ba/F3 KIF5B-RET cells
ATTRIBUTE_MEASURED: Tumor volume (Mean ± SD) Day 0
MEASURED: 126.93
//
MOLECULE: COc1ccc(CN2C3CC2CN(c2ccc(-c4cc(N5CC(C)(C#N)C5)cn5ncc(C#N)c45)cn2)C3)cn1
SYSTEM_NAME: subcutaneous transplanted tumor of Ba/F3 KIF5B-RET cells
ATTRIBUTE_MEASURED: Tumor volume (Mean ± SD) Day 0
MEASURED: 101.59
//
MOLECULE: COc1ccc(CN2C3CC2CN(c2ccc(-c4cc(N5CC(C(C)(C)O)C5)cn5ncc(C#N)c45)cn2)C3)cn1
SYSTEM_NAME: subcutaneous transplanted tumor of Ba/F3 KIF5B-RET cells
ATTRIBUTE_MEASURED: Tumor volume (Mean ± SD) Day 0
MEASURED: 100.80

INPUT: What Tumor volume (Mean ± SD) Day 0 value was documented for this molecule, `C#C[C@](C)(O)COc1cc(-c2ccc(N3CC4CC(C3)N4Cc3cnc(OC)c(F)c3)nc2)c2c(C#N)cnn2c1` ?
OUTPUT: 100.40

---

SYSTEM_NAME: hERG (Homo sapiens, UniProt Q12809)
Sequence (Q12809 whole entry): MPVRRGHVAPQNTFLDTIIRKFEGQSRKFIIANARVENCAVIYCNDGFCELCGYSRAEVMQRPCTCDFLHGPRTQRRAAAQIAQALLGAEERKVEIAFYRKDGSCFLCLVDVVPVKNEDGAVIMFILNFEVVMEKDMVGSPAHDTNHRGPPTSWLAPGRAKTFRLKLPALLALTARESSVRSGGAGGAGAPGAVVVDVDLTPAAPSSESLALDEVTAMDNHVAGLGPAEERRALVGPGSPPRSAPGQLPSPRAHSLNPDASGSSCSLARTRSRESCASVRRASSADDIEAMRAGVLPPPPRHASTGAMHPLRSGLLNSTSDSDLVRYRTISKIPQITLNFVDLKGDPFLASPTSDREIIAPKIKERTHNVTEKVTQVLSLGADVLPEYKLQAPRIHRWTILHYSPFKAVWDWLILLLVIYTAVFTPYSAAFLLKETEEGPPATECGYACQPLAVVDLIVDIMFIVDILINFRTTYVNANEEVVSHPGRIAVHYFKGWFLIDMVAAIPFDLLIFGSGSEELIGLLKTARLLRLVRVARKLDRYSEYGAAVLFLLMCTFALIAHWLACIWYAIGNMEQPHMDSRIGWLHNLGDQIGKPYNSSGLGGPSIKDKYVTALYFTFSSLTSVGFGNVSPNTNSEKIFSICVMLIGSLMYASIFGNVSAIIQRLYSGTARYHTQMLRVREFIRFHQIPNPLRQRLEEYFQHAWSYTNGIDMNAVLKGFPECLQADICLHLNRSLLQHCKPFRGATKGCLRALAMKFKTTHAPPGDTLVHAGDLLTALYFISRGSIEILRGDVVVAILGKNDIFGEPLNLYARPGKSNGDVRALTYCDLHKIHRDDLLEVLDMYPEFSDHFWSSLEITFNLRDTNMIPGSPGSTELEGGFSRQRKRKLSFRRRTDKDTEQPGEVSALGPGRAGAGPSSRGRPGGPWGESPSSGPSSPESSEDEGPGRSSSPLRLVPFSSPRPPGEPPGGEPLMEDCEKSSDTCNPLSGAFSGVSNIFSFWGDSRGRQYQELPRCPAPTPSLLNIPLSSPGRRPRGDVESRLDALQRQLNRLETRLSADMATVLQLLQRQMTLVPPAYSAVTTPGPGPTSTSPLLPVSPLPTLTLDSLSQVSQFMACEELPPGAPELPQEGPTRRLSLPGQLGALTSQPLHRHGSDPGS
EXPERIMENT_SUMMARY: in vitro
CONDITION_LABEL: human
ATTRIBUTE_MEASURED: inhibition at 30 μmol/L (%)
Field: numeric (%). Do not append units.

INPUT: What value of inhibition at 30 μmol/L has been reported for the following compound? `C#C[C@@](C)(O)COc1cc(-c2ccc(N3CC4CC(C3)N4Cc3ccc(OC)nc3)nc2)c2c(C#N)cnn2c1`
OUTPUT: 58.8

---

EXPERIMENT_SUMMARY: Thermodynamic solubility in different media at 37° C.
Format: physicochemical
CONDITION_LABEL: USP buffer pH 6, aqueous buffer, thermodynamic from solid, pH 6, 37° C., read-out: Solubility of crystal form I
ATTRIBUTE_MEASURED: solubility at 4 h
Hi, when you answer, please include the unit after the number. Thanks!

INPUT: Could you tell me which solubility at 4 h is on file for C#C[C@@](C)(O)COc1cc(-c2ccc(N3CC4CC(C3)N4Cc3ccc(OC)nc3)nc2)c2c(C#N)cnn2c1 [crystal form I] ?
OUTPUT: 1 µg/mL

---

Catalogue of molecules with associated pIC50
SYSTEM_NAME: RET M918T (Homo sapiens, UniProt P07949, M918T)
Sequence (P07949 29-1114 M918T): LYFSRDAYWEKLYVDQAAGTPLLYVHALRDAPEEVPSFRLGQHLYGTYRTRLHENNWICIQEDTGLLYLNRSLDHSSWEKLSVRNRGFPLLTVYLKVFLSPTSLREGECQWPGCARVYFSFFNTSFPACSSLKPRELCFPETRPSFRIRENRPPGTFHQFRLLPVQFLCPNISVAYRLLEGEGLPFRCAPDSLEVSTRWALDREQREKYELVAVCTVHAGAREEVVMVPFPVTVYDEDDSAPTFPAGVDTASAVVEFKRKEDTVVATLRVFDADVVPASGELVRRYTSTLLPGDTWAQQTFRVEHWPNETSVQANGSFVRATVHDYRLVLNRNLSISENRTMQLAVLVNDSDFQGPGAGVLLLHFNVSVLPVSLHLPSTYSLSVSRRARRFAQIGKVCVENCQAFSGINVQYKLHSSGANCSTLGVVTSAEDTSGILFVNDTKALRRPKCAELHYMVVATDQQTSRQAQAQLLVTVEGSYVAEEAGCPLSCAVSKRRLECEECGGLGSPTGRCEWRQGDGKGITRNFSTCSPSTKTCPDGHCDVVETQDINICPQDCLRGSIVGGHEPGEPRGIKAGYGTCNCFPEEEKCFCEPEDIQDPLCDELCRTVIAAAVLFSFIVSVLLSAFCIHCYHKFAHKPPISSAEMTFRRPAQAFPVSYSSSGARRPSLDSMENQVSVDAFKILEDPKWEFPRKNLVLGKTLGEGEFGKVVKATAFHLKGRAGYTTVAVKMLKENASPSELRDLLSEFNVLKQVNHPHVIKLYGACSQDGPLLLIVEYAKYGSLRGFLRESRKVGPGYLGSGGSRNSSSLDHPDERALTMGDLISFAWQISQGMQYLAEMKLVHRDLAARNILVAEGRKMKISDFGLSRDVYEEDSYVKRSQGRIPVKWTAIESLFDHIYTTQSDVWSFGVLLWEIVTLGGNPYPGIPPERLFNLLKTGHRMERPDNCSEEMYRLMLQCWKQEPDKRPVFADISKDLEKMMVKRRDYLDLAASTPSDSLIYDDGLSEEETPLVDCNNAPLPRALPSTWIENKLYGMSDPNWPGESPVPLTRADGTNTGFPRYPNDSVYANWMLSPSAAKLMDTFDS
EXPERIMENT_SUMMARY: HTRF kinase activity inhibition, RET M918T
CONDITION_LABEL: ATP at Km
Hey, just a heads up that pIC50 is the negative log base 10 of the concentration in molar.

SMILES_STRUCTURE: C#C[C@](C)(O)COc1cc(-c2ccc(N3CC4CC(C3)N4Cc3ccc(OC)nc3)nc2)c2c(C#N)cnn2c1
pIC50: 9.77
//
SMILES_STRUCTURE: COc1ccc(CN2C3CC2CN(c2ccc(-c4cc(C#CC(C)(C)N)cn5ncc(C#N)c45)cn2)C3)cn1
pIC50: 9.42

INPUT: # value lookup — system RET M918T (Homo sapiens, UniProt P07949, M918T), readout pIC50, item `CC1(NC(=O)c2ncccc2Cl)CCN(c2ccc(-c3cc(C#CC4(O)COC4)cn4ncc(C#N)c34)cn2)CC1`
OUTPUT: 9.43

INPUT: Query pIC50 on RET M918T (Homo sapiens, UniProt P07949, M918T) for `COc1ccc(CN2C3CC2CN(c2ccc(-c4cc(C#CC(C)(C)O)cn5ncc(C#N)c45)cn2)C3)cn1`
OUTPUT: 9.17

---

SYSTEM_NAME: Ba/F3 KIF5B-RET cells (Homo sapiens, UniProt P07949)
Construct: fused on or other part: P33176 (Kinesin-1 heavy chain)
Sequence (P07949 whole entry, change not shown, the tested form may be a part): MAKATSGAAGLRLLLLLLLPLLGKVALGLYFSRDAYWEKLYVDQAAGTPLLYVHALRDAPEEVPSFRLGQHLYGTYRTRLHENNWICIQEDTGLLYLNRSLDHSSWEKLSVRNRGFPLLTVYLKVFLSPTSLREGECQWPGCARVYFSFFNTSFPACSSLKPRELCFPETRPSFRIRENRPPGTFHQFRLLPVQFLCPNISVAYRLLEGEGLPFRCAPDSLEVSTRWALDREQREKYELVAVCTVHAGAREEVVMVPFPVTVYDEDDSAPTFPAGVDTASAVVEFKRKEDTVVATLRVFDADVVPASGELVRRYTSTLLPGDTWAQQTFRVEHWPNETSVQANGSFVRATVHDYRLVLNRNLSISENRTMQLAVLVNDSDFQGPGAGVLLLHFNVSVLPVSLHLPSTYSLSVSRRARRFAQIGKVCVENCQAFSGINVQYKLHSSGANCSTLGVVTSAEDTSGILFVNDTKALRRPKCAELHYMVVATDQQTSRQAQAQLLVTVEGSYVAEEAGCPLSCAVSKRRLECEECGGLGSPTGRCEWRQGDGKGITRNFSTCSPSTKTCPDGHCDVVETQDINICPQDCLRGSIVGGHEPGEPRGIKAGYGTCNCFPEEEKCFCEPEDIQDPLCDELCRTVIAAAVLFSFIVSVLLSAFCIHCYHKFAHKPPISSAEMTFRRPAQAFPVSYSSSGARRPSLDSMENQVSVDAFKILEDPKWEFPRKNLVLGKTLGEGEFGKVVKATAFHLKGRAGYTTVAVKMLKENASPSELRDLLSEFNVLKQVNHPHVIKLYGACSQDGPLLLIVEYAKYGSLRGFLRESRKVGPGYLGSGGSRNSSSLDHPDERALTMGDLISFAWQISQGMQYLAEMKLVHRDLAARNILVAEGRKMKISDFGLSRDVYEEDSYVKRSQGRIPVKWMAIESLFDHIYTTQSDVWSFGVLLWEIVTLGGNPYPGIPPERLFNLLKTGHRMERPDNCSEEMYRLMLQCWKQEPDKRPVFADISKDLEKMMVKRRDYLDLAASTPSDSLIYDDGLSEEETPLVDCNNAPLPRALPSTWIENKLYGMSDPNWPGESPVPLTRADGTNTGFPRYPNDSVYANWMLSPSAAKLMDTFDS
EXPERIMENT_SUMMARY: Inhibition of proliferation of Ba/F3 KIF5B-RET cells (CellTiter-Glo)
Assay type: cell-based
CONDITION_LABEL: 72 to 144 hours
ATTRIBUTE_MEASURED: pIC50
// field semantics: pIC50 = negative decimal log of concentration (mol/L)

Solved cases below.
MOLECULE: C#C[C@](C)(O)COc1cc(-c2ccc(N3CC4CC(C3)N4Cc3ccc(OC)nc3)nc2)c2c(C#N)cnn2c1
SYSTEM_NAME: Ba/F3 KIF5B-RET cells (Homo sapiens, UniProt P07949)
pIC50: 7.65
--
MOLECULE: COc1ncc(CN2C3CC2CN(c2ccc(-c4cc(OCC5(C#N)CC5)cn5ncc(C#N)c45)cn2)C3)cc1F
SYSTEM_NAME: Ba/F3 KIF5B-RET cells (Homo sapiens, UniProt P07949)
pIC50: 7.71
--
MOLECULE: COc1ccc(CN2C3CC2CN(c2ccc(-c4cc(C#C[C@@H](C)O)cn5ncc(C#N)c45)cn2)C3)cn1
SYSTEM_NAME: Ba/F3 KIF5B-RET cells (Homo sapiens, UniProt P07949)
pIC50: 7.77

INPUT: Ba/F3 KIF5B-RET cells (Homo sapiens, UniProt P07949) / pIC50 / `COc1ccc(CN2C3CC2CN(c2ccc(-c4cc(C#CC(C)(C)O)cn5ncc(C#N)c45)cn2)C3)cn1` : value?
OUTPUT: 7.92

INPUT: Record lookup: for Ba/F3 KIF5B-RET cells (Homo sapiens, UniProt P07949), what pIC50 belongs to `COc1ncc(CN2C3CC2CN(c2ccc(-c4cc(N5CC(C)(C#N)C5)cn5ncc(C#N)c45)cn2)C3)cc1F` ?
OUTPUT: 8.22

---

SYSTEM_NAME: KDR kinase (Homo sapiens, UniProt P35968)
Construct: purchased Carna 08-191
Sequence (P35968 20-1356): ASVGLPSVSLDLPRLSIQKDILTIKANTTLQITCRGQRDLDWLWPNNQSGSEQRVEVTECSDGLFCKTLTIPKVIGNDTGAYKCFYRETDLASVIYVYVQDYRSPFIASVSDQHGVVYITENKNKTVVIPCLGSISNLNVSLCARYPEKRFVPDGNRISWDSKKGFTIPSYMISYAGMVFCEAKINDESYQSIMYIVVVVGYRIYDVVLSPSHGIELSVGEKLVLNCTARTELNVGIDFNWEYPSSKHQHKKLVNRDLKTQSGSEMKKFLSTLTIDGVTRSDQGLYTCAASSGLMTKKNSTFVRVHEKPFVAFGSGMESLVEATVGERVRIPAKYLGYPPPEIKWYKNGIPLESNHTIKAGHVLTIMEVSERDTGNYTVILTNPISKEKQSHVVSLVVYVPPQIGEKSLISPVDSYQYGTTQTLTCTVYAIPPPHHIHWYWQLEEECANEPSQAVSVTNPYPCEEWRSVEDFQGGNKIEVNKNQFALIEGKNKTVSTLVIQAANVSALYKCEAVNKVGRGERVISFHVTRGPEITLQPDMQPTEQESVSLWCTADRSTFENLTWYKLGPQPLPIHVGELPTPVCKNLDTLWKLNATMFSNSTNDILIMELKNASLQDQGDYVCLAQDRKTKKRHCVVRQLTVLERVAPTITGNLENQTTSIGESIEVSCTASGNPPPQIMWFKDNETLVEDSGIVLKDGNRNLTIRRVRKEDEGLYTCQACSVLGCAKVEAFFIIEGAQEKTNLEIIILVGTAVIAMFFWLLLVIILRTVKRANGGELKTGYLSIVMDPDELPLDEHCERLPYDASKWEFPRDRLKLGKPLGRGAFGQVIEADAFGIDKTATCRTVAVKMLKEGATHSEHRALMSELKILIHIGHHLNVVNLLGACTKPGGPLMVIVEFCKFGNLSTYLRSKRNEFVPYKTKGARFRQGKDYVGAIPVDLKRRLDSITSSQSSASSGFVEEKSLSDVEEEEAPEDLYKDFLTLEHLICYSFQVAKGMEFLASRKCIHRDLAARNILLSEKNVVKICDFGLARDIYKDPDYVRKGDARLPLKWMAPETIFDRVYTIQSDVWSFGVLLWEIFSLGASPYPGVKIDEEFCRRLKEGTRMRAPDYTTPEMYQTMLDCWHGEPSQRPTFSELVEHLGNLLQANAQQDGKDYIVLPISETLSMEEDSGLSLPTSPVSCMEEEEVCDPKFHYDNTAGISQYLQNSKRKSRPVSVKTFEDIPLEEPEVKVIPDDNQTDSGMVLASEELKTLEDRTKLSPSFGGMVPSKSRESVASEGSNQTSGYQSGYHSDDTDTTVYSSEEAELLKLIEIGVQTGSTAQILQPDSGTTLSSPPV
EXPERIMENT_SUMMARY: HTRF kinase activity inhibition, KDR
Format: biochemical
CONDITION_LABEL: KDR IC50 / RET IC50
ATTRIBUTE_MEASURED: Ratio (KDR/RET)

Use these answered entries as a reference point.
COMPOUND: CC1(NC(=O)c2ncccc2F)CCN(c2ccc(-c3cc(OCC4(C#N)CC4)cn4ncc(C#N)c34)cn2)CC1
Ratio (KDR/RET): 136
//
COMPOUND: COc1ccc(CN2C3CC2CN(c2ccc(-c4cc(NC(=O)C(C)(C)O)cn5ncc(C#N)c45)cn2)C3)cn1
Ratio (KDR/RET): 67
//
COMPOUND: COc1ccc(CN2C3CC2CN(c2ccc(-c4cc(OCC56CC(O)(C5)C6)cn5ncc(C#N)c45)cn2)C3)cn1
Ratio (KDR/RET): 438
//
COMPOUND: COc1ccc(CN2C3CC2CN(c2ccc(-c4cc(OCC56CC(C(N)=O)(C5)C6)cn5ncc(C#N)c45)cn2)C3)cn1
Ratio (KDR/RET): 12
//
COMPOUND: COc1ncc(CN2C3CC2CN(c2ccc(-c4cc(OCC5CC(C)(O)C5)cn5ncc(C#N)c45)cn2)C3)cc1F (centres unmarked)
Ratio (KDR/RET): 20
//
COMPOUND: COCC(C)(O)C#Cc1cc(-c2ccc(N3CC4CC(C3)N4Cc3cnc(OC)c(F)c3)nc2)c2c(C#N)cnn2c1 (centres unmarked)
Ratio (KDR/RET): 32
//
COMPOUND: COc1ccc(CN2C3CC2CN(c2ccc(-c4cc(C#CC(C)(C)O)cn5ncc(C#N)c45)cn2)C3)cn1
Ratio (KDR/RET): 34
//
COMPOUND: COc1ccc(CN2C3CC2CN(c2ccc(-c4cc(OCC[S+](C)[O-])cn5ncc(C#N)c45)cn2)C3)cn1 (centres unmarked)
Ratio (KDR/RET): 59
//
COMPOUND: C#C[C@](C)(O)COc1cc(-c2ccc(N3CC4CC(C3)N4Cc3ccc(OC)nc3)nc2)c2c(C#N)cnn2c1
Ratio (KDR/RET): 118
//
COMPOUND: [2H]C([2H])([2H])Oc1ccc(CN2C3CC2CN(c2ccc(-c4cc(N5CC(C(C)(C)O)C5)cn5ncc(C#N)c45)cn2)C3)cn1
Ratio (KDR/RET): 27

INPUT: Entry `COc1ncc(CN2C3CC2CN(c2ccc(-c4cc(C#CC(C)(C)O)cn5ncc(C#N)c45)cn2)C3)cc1F` has what Ratio (KDR/RET)?
OUTPUT: 73

INPUT: Suppose we examine the compound `COc1ncc(CN2C3CC2CN(c2ccc(-c4cc(C#C[C@@H](C)O)cn5ncc(C#N)c45)cn2)C3)cc1F` ; what Ratio (KDR/RET) value has been reported?
OUTPUT: 43

INPUT: Consider the compound `COc1ccc(CN2C3CC2CN(c2ccc(-c4cc(N5CC(C)(O)C5)cn5ncc(C#N)c45)cn2)C3)cn1` and give its measured Ratio (KDR/RET).
OUTPUT: 14

INPUT: Look up Ratio (KDR/RET) for this compound: `CC1(O)CC2(CN(c3cc(-c4ccc(N5CCC(C)(NC(=O)c6ncccc6Cl)CC5)nc4)c4c(C#N)cnn4c3)C2)C1`
OUTPUT: 8
